Cited source: the supplement of paper PMC10567573

Provide the reported protein stability index of each item.
B1: CHCHD6 (parent)
chain: MYKLSSEQFHEAASKMESTIKPRR

# Variants of: B1
# Protocol description: protein stability index of a GFP-peptide fusion (GPS, HEK-293T) (PSI 1-6); higher = more stable;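 further: lentivirally expressed fusions sorted by FACS into six bins by GFP to DsRed ratio, PSI derived from sequencing read proportions per bin multiplied by bin number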
# Study conditions: c terminus: a fixed tail appended
Number only, please.

Query E17V yields protein stability index of 3.27

Query S6T yields protein stability index of 4.18

Query A13Q yields protein stability index of 3.61

Query P22T yields protein stability index of 4.09

Query I20C yields protein stability index of 4.01

Query S14C yields protein stability index of 3.29

Query I20R yields protein stability index of 3.97

Query M1W yields protein stability index of 3.36

Query I20D yields protein stability index of 4.22

Query I20W yields protein stability index of 3.07

Query K3R yields protein stability index of 3.6

Query M1I yields protein stability index of 3.41

Query S5H yields protein stability index of 4.14

Query H10N yields protein stability index of 3.41
